ASSAY_EXPLANATION: Components of the Cytosolic LPS Sensing Pathway: Gene Identification via Genome-wide siRNA Screen;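 note: robust z of the log signal after scaling to non-targeting control siRNA wells of the plate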
STUDY_CONDITIONS: RAW264.7 macrophages, IL-1a HTRF, actives lie on both sides, screened at 100 nM (by protocol), cells primed 5 h with Pam3CSK4 first
Out of some 53,000 sequences screened, about 3,700 (7%) were called active. Many of the other results were omitted from the sample, so actives are more common in it than they were.
# cutoff 0.2 applies to z-score; >= gives class 1, < gives class 0

• GGCUUUACGUGACAAAGAUTT against 4933430I17Rik = class 1
• GGAAACUCCGUCCCAAUUGTT against Trim68 = class 1
• GAGCAAUAAGCUAGGGUGATT against Olfr1428 = class 1
• CGAUUUCCCAAGUUAUUACTT against Nxf1 = class 0
• CCAUUUCUCACCAGUGAUCTT against Gm5535 = class 0
• CCACCUAUCAGGAUUCAACTT against Sf3b6 = class 0
• GGUGACUAGGAAGAACACGTT against Tmem9b = class 1
• GCUAAGAUUCCUUCCAGUATT against Adm2 = class 1
• GGCCCUCAAUACCUGUGGUTT against Olfr690 = class 0
• GGAGGAACCUAAUUGAAUGTT against Cmbl = class 0
• GCCAAAGACUCUUAUAAGUTT against Bnc1 = class 0
• GGUGAGGUUCAAACAUUCUTT against Sdf2 = class 0
• GCACAUAGCAUCCACUCCATT against Gm4793 = class 0
• GCGACUGACCUUCAAACUGTT against Piwil4 = class 0
• GGGUAUUUUACCACUACUUTT against Psg23 = class 1
• GGAGAAGGAGCAGAUUAAATT against Krt8 = class 1
• CGGUGGCAAAAUGAGAAGUTT against Cd79a = class 0
• GGUUCAGACACCACUUCAGTT against Bgn = class 1
• GGCUAUGACAAUGCCUACATT against Maged2 = class 0
• GGUGUGUGAAAUCACUCACTT against Oxnad1 = class 1
• GCUAGAUAUCCGGAACCAATT against Ndufv3 = class 0
• GCUCGAUCAUGGGCCUAUATT against Crls1 = class 0
• GGGAUGGACAAGUUGUACUTT against Renbp = class 0
• GGGAUUGUGUGAAUCAUACTT against Tmem230 = class 0
• CCCAAGGUCCAGUUUGAUGTT against Mettl17 = class 0

Where do the numbers come from? From PubChem BioAssay AID1508600.
